Taken from paper PMC5540273.

system: PIK3CA; conditions: concentration: 1 μM, replicates: in singlicate; n = 1;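 note: KINOMEscan kinase panel screen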
MEASURED_PARAMETER: %Inh (%)
Just the number please, in %, no unit attached.

Illustrative cases are given below, each with its answer.
{"columns": ["MOLECULE", "%Inh [%]"],
 "data": [
  ["Fc1cccc(COc2ccc(Nc3ncnc4sc(-c5ccc[nH]5)cc34)cc2Cl)c1 [GW707818]", 0],
  ["OCCOCCn1ccc2ncnc(Nc3ccc(Oc4cccc(Cl)c4)c(Cl)c3)c21", 0],
  ["Cl.Fc1ccccc1COc1ccc(Nc2ncnc3ccc(-c4nnc(C(F)(F)F)o4)cc23)cc1Cl [GW424170]", 0]
]}

Record request: %Inh value, item Cl.Cl.c1ccc(-c2cc3ccncc3cc2OC2CCNCC2)cc1 [GSK1122999]
4
